Ref: patent US8138168B1

Target: Recombinant human renin (Homo sapiens)
Construct: isolate the active form (residues 67-406); made in house; host or cells: FreeStyle 293-F cells (transient expression of pcDNA3.1(+)/hREN)
Assay: In vitro enzymatic activity assay of renin inhibitors (fluorogenic peptide substrate)
Type: biochemical
Conditions: read-out: IC50 of Exemplified Compounds Against Renin
Procedure: Test compounds in varying concentrations may be reacted with recombinant human renin in the presence of substrate, e.g., QXL520-γ-Abu-[…](HiLyteFluo488)-Arg-OH (Anaspec, San Jose, Calif.). […] Inhibition constants (IC50) may be calculated by non-linear curve fitting of the compound concentrations and fluorescence intensities to the standard IC50 equation. […] The fluorescence intensity is determined upon the addition of substrate and determined again after incubation at 37° C. for one hour. […]
experimental-readout: IC50

Reference set (6 entries):
{"compound": "COCCCn1c([C@@H]2CCCN(C(=O)C[C@H](N)Cc3ccc4ccccc4c3)C2)nc2ccc(OC)nc21", "system-under-test": "Recombinant human renin (Homo sapiens)", "IC50": "100 to 1000 nM"}
{"compound": "O=C(Nc1ccc2ccccc2c1)N1CCCC(c2nc3ccccc3[nH]2)C1 (stereo not shown)", "system-under-test": "Recombinant human renin (Homo sapiens)", "IC50": "> 1000 nM"}
{"compound": "COCCCn1c([C@@H]2CCCN(C(=O)C[C@H](N)Cc3ccc(-c4cccnc4F)cc3)C2)nc2ccccc21", "system-under-test": "Recombinant human renin (Homo sapiens)", "IC50": "< 100 nM"}
{"compound": "COCCCn1c([C@@H]2CCCN(C(=O)C[C@H](N)Cc3ccc(-c4ccccc4C)cc3)C2)nc2ccccc21", "system-under-test": "Recombinant human renin (Homo sapiens)", "IC50": "< 100 nM"}
{"compound": "COCCCn1c([C@@H]2CCCN(C(=O)C[C@@H](N)Cc3ccc(Cl)cc3)C2)nc2ccccc21", "system-under-test": "Recombinant human renin (Homo sapiens)", "IC50": "> 1000 nM"}
{"compound": "COCCCn1c([C@@H]2CCCN(C(=O)C[C@H](N)CNC(=O)Nc3ccccc3OC)C2)nc2ccccc21", "system-under-test": "Recombinant human renin (Homo sapiens)", "IC50": "< 100 nM"}

Please examine the following record next.
Per the records, this compound ( Cc1nc2ccccc2n1[C@@H]1CCCN(C(=O)C[C@H](N)Cc2ccc3ccccc3c2)C1 ) has IC50 equal to > 1000 nM

###

Biological target: Recombinant human renin (Homo sapiens, UniProt P00797)
Construct: isolate the active form (residues 67-406); made in house; host or cells: FreeStyle 293-F cells (transient expression of pcDNA3.1(+)/hREN)
Sequence (P00797 67-406): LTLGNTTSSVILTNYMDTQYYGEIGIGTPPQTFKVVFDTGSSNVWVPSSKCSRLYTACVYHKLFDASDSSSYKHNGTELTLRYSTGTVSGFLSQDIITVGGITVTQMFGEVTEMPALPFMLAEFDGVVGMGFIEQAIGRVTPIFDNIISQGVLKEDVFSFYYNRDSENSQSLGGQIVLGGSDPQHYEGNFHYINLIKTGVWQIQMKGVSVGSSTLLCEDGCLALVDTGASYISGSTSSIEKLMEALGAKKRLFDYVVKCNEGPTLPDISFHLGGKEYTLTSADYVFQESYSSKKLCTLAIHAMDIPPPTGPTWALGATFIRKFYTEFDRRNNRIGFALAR
Assay: In vitro enzymatic activity assay of renin inhibitors (fluorogenic peptide substrate)
Format: biochemical
Settings: read-out: IC50 of Exemplified Compounds Against Renin
experimental-readout: IC50

{"compound": "COCCCn1c([C@@H]2CCCN(C(=O)C[C@H](N)CNC(=O)c3c(Cl)cccc3Cl)C2)nc2ccccc21", "system-under-test": "Recombinant human renin (Homo sapiens, UniProt P00797)", "experimental-readout": "IC50", "measured-value": "100 to 1000 nM"}
{"compound": "COCCCn1c(C2CCCN(C(=O)C[C@H](N)Cc3ccc(Cl)cc3)C2)nc2ccccc21 (some centres unmarked)", "system-under-test": "Recombinant human renin (Homo sapiens, UniProt P00797)", "experimental-readout": "IC50", "measured-value": "100 to 1000 nM"}
{"compound": "COCCCn1c([C@@H]2CCCN(C(=O)C[C@H](N)Cc3ccc(-c4c(C)n[nH]c4C)cc3)C2)nc2ccccc21", "system-under-test": "Recombinant human renin (Homo sapiens, UniProt P00797)", "experimental-readout": "IC50", "measured-value": "< 100 nM"}
{"compound": "COCCCn1c([C@@H]2CCCN(C(=O)C[C@H](N)Cc3ccc(-c4ccc(OCC5CC5)nc4)cc3)C2)nc2ccccc21", "system-under-test": "Recombinant human renin (Homo sapiens, UniProt P00797)", "experimental-readout": "IC50", "measured-value": "< 100 nM"}
{"compound": "COCCCn1c(C(C)(C)C)cnc1C1(O)CCCN(C(=O)C[C@H](N)Cc2ccc(-c3ccc(C(=O)OC)cc3)cc2)C1 (some centres unmarked)", "system-under-test": "Recombinant human renin (Homo sapiens, UniProt P00797)", "experimental-readout": "IC50", "measured-value": "> 1000 nM"}

Per the records, this compound ( COCCCn1c([C@@H]2CCCN(C(=O)C[C@H](N)Cc3ccc(-c4ccc(C(=O)NCCO)c(F)c4)cc3)C2)nc2ccccc21 ) has IC50 equal to < 100 nM

Per the records, this compound ( COCCCn1c(C2CCCN(C(=O)C[C@H](N)Cc3ccc4ccccc4c3)C2)nc2cccc(C(=O)OC)c21 (some centres unmarked) ) has IC50 equal to > 1000 nM

Per the records, this compound ( COCCCn1c(C2CCCN(C(=O)C[C@H](N)Cc3ccc4ccccc4c3)C2)nc2ccc(OC)nc21 (some centres unmarked) ) has IC50 equal to 100 to 1000 nM

###

Recorded IC50 values for a group of compounds are listed next.
Target: Recombinant human renin (Homo sapiens, UniProt P00797)
Construct: isolate the active form (residues 67-406); made in house; host or cells: FreeStyle 293-F cells (transient expression of pcDNA3.1(+)/hREN)
Assay: In vitro enzymatic activity assay of renin inhibitors (fluorogenic peptide substrate)
Type: biochemical
Settings: read-out: IC50 of Exemplified Compounds Against Renin

{"compound": "COCCCn1c([C@@H]2CCCN(C(=O)C[C@H](N)Cc3ccc4ccccc4c3)C2)nc2ccc(C(C)C)cc21", "system-under-test": "Recombinant human renin (Homo sapiens, UniProt P00797)", "experimental-readout": "IC50", "measured-value": "100 to 1000 nM"}
{"compound": "O=C(Nc1ccc2c(c1)OCO2)N1CCCC(c2nc3ccccc3[nH]2)C1 (centres unmarked)", "system-under-test": "Recombinant human renin (Homo sapiens, UniProt P00797)", "experimental-readout": "IC50", "measured-value": "> 1000 nM"}
{"compound": "COCCCn1c([C@@H]2CCCN(C(=O)[C@@H]3CN(C(=O)c4ccco4)C[C@H]3N)C2)nc2ccccc21", "system-under-test": "Recombinant human renin (Homo sapiens, UniProt P00797)", "experimental-readout": "IC50", "measured-value": "> 1000 nM"}
{"compound": "COCCCn1c([C@@H]2CCCN(C(=O)[C@@H]3CN(C(=O)c4cccc5ccccc45)C[C@H]3N)C2)nc2ccccc21", "system-under-test": "Recombinant human renin (Homo sapiens, UniProt P00797)", "experimental-readout": "IC50", "measured-value": "100 to 1000 nM"}

Per the records, this compound ( COCCCn1c([C@@H]2CCCN(C(=O)[C@@H]3CN(C(=O)NC4CCCC4)C[C@H]3N)C2)nc2ccccc21 ) has IC50 equal to > 1000 nM

Per the records, this compound ( COCCCn1c([C@@H]2CCCN(C(=O)C[C@H](N)Cc3ccc(-n4c(=O)n(CCOC)c5ccccc54)cc3)C2)nc2ccccc21 ) has IC50 equal to < 100 nM

Per the records, this compound ( COCCCn1c([C@@H]2CCCN(C(=O)C[C@H](N)CNC(=O)c3ccc(-c4cc(Cl)ccc4Cl)o3)C2)nc2ccccc21 ) has IC50 equal to 100 to 1000 nM

Per the records, this compound ( CC[C@H](C)[C@H](N)C(=O)N1CCCC(c2nc3ccccc3[nH]2)C1 (some centres unmarked) ) has IC50 equal to > 1000 nM

Per the records, this compound ( COCCCn1c([C@@H]2CCCN(C(=O)C[C@H](N)Cc3ccc4ccccc4c3)C2)nc2cc([N+](=O)[O-])ccc21 ) has IC50 equal to 100 to 1000 nM

Per the records, this compound ( COCCCn1c([C@@H]2CCCN(C(=O)C[C@H](N)CNC(=O)c3cccnc3Oc3ccccc3)C2)nc2ccccc21 ) has IC50 equal to 100 to 1000 nM

Per the records, this compound ( Nc1ncc(-c2ccc(C[C@@H](N)CC(=O)N3CCC[C@@H](c4nc5ccccc5n4CCF)C3)cc2)cn1 ) has IC50 equal to 100 to 1000 nM

Per the records, this compound ( CC(=O)NCCn1c([C@@H]2CCCN(C(=O)C[C@H](N)Cc3ccc(-c4ccnc(O)c4)cc3)C2)nc2ccccc21 ) has IC50 equal to 100 to 1000 nM

Per the records, this compound ( COCCCn1c([C@@H]2CCCN(C(=O)[C@@H]3CN(S(=O)(=O)c4ccc5c(c4)OCCO5)C[C@H]3N)C2)nc2ccccc21 ) has IC50 equal to > 1000 nM

Per the records, this compound ( COCCCn1c([C@@H]2CCCN(C(=O)[C@@H]3CN(S(=O)(=O)c4cc(OC)ccc4OC)C[C@H]3N)C2)nc2ccccc21 ) has IC50 equal to > 1000 nM
